ASSAY TEXT: pH profile of enzymes on 1 mM ATP
Format: biochemical
EXPERIMENTAL CONDITIONS: 50 mM trisodium citrate/citric acid, 5 mM CaCl2, relative to the highest value
Assign Relative activity on ATP, pH 5 to each entry below.
Give bare numbers.

[[record]]
molecule = "CRC25082: Acid phosphatase (Class A), accession WP_050460978.1, SEQ ID NO:19 (protein, listed as Herbaspirillum autotrophicum) KGAAGFLNGQTAPDSLAILPPPPAEDSVAFQADKAQYETGHVLRDPERVEQARQDADYRNFGHAFSAAFGMEISATHTPVLYQLLTEVLQDSHDYAMKAAKNHYKRVRPFVVYKDPTCTPGQDEKMALSGSYPSGHASFGWAAALVLAEINPARQTEILQRGYAFGKSRVICGAHWQSDVDNGQLMGAAVVAALHSNSQFAAALNAAKNEFAGLRAQDNKK"
experimental_endpoint = "Relative activity on ATP, pH 5"
observed_value = 0.3


The record that follows has no Relative activity on ATP, pH 5 shown yet.
Req: Tell us which Relative activity on ATP, pH 5 value is on record for CRC25089: Acid phosphatase (Class A), accession WP_217352265.1, SEQ ID NO:22 (protein, listed as Paraburkholderia bonniea) AGSDGFLTAETAPSSLAILPPPPAENTVAFLNDKANYEIGRSLKNDARVALAASDANCKNINAIFSSAFGREISEEKTPKLYRLLLGVLQDSHDHAMKSAKNHYMRVRPFVMYGDKTCTPEEDNKMKNTGSYPSGHASFGWAAALVLSEINPERTTEILRRGYDFGQSRVVCGAHWQSDVDNGRLMGAAVVADLHNNDKFIKALEAAKAEFKENTPGN
Resp: 0.8

Recorded values, source patent US20240124857A1.
